For each of the compounds below, state its GHS category.
Assay: GHS categories as the set defines them, by LD50: 1 up to 5, 2 up to 50, 3 up to 300, 4 up to 2000, 5 above 2000 mg/kg
Details: rat; in vivo; po
Just the number, please, no unit attached.

Qu. Suppose we examine the compound O=C(OOC(=O)c1ccc(Cl)cc1Cl)c1ccc(Cl)cc1Cl ; what GHS category value has been reported?
Ans. 5

Qu. // same read-out, input: COc1ccccc1N=NC(C(C)=O)C(=O)Nc1ccc2[nH]c(=O)[nH]c2c1 (stereo unspecified)
Ans. 5

Qu. And the next one, CCCCC(CC)C1NC(=O)N(SC(Cl)(Cl)Cl)C1=O (stereo unspecified) ?
Ans. 4

Qu. How about CNC(=O)C(=NNc1ccc(Cl)c(Cl)c1)C(C)=O ?
Ans. 5

Qu. Same again, this time with CCOP(=O)(CC(=O)Nc1cc2c(Nc3ccc(F)c(Cl)c3)ncnc2cc1O[C@H]1CCOC1)OCC
Ans. 5

Qu. And O=C(O)c1ccc(OCCn2ccnc2)cc1 ?
Ans. 4
